Please go through the items and note down their self-cleavage.
B1: HDV Ribozyme (parent)
chain: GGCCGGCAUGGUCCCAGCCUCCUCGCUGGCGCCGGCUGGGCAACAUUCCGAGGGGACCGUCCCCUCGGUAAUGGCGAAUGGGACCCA

Variants of: B1
Test: self-cleavage, relative activity (ratio to wild type); higher = more cleavage; co-transcriptional
The answer should be a number; do not append a unit.

Lookup: # input variant: G74U C84A ; wanted: its self-cleavage
Found: 0.475

Lookup: Now try A56U C86G .
Found: 1.19

Lookup: Queued: G29A C57U
Found: 0.234

Lookup: Could you do the same for G2A G17C , please?
Found: 0

Lookup: How about this variant: G59U C75U
Found: 0.145

Lookup: Same for C30U A45C
Found: 0.138

Lookup: Moving on to the next variant: G35A U79A
Found: 0.47

Lookup: Next variant: A8C C24U
Found: 0.396

Lookup: Another variant to check: G35U C84G
Found: 0.185

Lookup: Please give the result for G55U C75G too.
Found: 0.0707

Lookup: Proceed to U46G A77G
Found: 0.415

Lookup: # repeat for C4G C15A
Found: 0.142

Lookup: Field entry: G38C C44G
Found: 0.222

Lookup: Then this variant: G40U C75A
Found: 0.12

Lookup: Likewise for G40U U69A ?
Found: 0.623

Lookup: Lookup G59C U69A
Found: 1.27

Lookup: # iterate: C75A A77U
Found: 0.119

Lookup: For A51C G68U then?
Found: 0.782

Lookup: Same for U60A U79A
Found: 0.923

Lookup: # repeat for U23G G38U
Found: 0.0583

Lookup: Input C3G U72A
Found: 0.237

Lookup: Lookup A16C G50A
Found: 0.525

Lookup: Consider next the variant A71C G82A in the same way.
Found: 0.111

Lookup: Another variant to look at: A42C C57G
Found: 0.237
